- Tested on: Allium cepa
- protocol_notes: Stimulation of root length of Allium cepa (onion) at 0.1 mM after 5 days relative to untreated control
- Format: functional
Calls of active or inactive are those of the source. The rule behind the calls is not given here.
observed_property: Activity

• COC(=O)[C@@]1(C)CCC[C@]2(C)C3=CC(=O)OC[C@]34O[C@@H]4C[C@@H]12 = <20%
• C[C@]1(C(=O)O)CCC[C@]2(C)C3=CC(=O)OC[C@]34O[C@@H]4C[C@@H]12 = inactive
• CO[C@@H]1OC(=O)C=C2C1=C[C@H]1OC(=O)[C@@]3(C)CCC[C@@]2(C)[C@@H]13 = >40%
• COC(=O)[C@@]1(C)CCC[C@]2(C)C3=C(CC[C@@H]12)COC(=O)C3 = inactive
• COC(=O)[C@@]1(C)CCC[C@]2(C)C3=CC(=O)OCC3=CC[C@@H]12 = 20%
